- experimentalSystem: Disintegrin and metalloproteinase domain-containing protein 17 (Homo sapiens)
- Sequence (P78536 whole entry, the tested form may be a part): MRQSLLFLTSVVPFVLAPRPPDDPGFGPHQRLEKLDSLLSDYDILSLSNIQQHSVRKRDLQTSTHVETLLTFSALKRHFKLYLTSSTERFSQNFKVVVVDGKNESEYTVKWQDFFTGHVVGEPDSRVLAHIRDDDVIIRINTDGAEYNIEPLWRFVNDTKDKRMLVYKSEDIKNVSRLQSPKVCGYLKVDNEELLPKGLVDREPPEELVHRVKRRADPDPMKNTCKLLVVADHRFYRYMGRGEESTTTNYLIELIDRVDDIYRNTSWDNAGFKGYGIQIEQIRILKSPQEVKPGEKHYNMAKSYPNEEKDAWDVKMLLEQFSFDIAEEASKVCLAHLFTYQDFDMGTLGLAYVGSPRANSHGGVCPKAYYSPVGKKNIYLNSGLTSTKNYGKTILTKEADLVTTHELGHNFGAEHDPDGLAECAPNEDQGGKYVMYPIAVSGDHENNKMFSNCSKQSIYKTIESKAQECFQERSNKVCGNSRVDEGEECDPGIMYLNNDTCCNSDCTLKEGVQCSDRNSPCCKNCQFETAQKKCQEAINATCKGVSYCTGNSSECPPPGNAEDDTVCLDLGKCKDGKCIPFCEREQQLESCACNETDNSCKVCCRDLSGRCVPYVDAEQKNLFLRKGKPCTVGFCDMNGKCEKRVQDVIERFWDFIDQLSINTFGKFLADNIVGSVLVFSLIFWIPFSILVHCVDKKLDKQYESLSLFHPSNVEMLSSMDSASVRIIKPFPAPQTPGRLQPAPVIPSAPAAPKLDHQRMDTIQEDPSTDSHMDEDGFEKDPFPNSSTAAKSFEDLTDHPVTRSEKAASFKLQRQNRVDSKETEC
- assayRemarks: exosite inhibitors of ADAM17, dose response, biochemical (AID 743260)
Activity calls are given as the source filed them. The rule behind the calls is not given here.
So I've got a bunch of molecules here, and I need their IC50 values.

[ask] Hello, please tell me recorded IC50 for this one: "CN(C)S(=O)(=O)c1cccc(NC(=O)c2cc(-c3cccs3)nn2-c2cccc(Cl)c2)c1"
[reply] > 69.5 µM (inactive)

[ask] Hello, please tell me recorded IC50 for this one: "CC(C)Nc1nc(NC(C)C)nc(N(C#N)CCOc2ccc(Cl)cc2Cl)n1"
[reply] > 69.5 µM (inactive)

[ask] Hello, please tell me recorded IC50 for this one: "O=C1OCCN1C(=O)[C@H]1[C@H](c2ccc([N+](=O)[O-])cc2)C(c2ccccc2)=NN1c1ccc(Br)cc1"
[reply] > 69.5 µM (inactive)

[ask] Hello, please tell me recorded IC50 for this one: "CC(=O)Oc1ccc(C(=O)Nc2cccc(C(=O)c3ccc(C)c(C)c3)c2)cc1"
[reply] > 69.5 µM (inactive)
